Here the recorded efflux ratio at 2 h, 2 µM is given for each entry.
System: P-gp (human MDR1)
Test: Bidirectional transport across LLC-PK1-MDR1 monolayer stably expressing human MDR1 (P-gp) (Transwell)
Settings: pig, LLC-PK1, pH 7.4
REPORTED PROPERTY: efflux ratio at 2 h, 2 µM

[
  {
    "COMPOUND": "CC[C@]1(O)C[C@@H]2CN(CCc3c([nH]c4ccccc34)[C@@](C(=O)OC)(c3cc4c(cc3OC)N(C)[C@H]3[C@@](O)(C(=O)OC)[C@H](OC(C)=O)[C@]5(CC)C=CCN6CC[C@]43[C@@H]65)C2)C1",
    "RESULT VALUE": 7.2
  },
  {
    "COMPOUND": "COc1ccc2[nH]cc(CCNC(C)=O)c2c1",
    "RESULT VALUE": 1.02
  },
  {
    "COMPOUND": "COc1cccc(C2(O)CCCCC2CN(C)C)c1 (stereo not shown)",
    "RESULT VALUE": 0.96
  },
  {
    "COMPOUND": "COc1ccc2c(c1)c(CC(=O)O)c(C)n2C(=O)c1ccc(Cl)cc1",
    "RESULT VALUE": 1.36
  }
]

---

System: P-gp (human MDR1)
Assay: Bidirectional transport across LLC-PK1-MDR1 monolayer stably expressing human MDR1 (P-gp) (Transwell)
Details: pig, LLC-PK1, pH 7.4
Here the recorded Papp B→A at 2 h, 2 µM is given for each entry.

[
  {
    "MOLECULE": "CC(NC(C)(C)C)C(=O)c1cccc(Cl)c1 (stereo not shown)",
    "OUTPUT UNIT": "×10⁻⁶ cm/s",
    "Papp B→A at 2 h, 2 µM": 19.5
  },
  {
    "MOLECULE": "C=C[C@H]1C[N@@]2CC[C@H]1C[C@@H]2[C@@H](O)c1ccnc2ccc(OC)cc12",
    "OUTPUT UNIT": "×10⁻⁶ cm/s",
    "Papp B→A at 2 h, 2 µM": 42.9
  },
  {
    "MOLECULE": "COc1cc([C@@H]2c3cc4c(cc3[C@@H](O[C@@H]3O[C@@H]5CO[C@@H](C)O[C@H]5[C@H](O)[C@H]3O)[C@H]3COC(=O)[C@H]23)OCO4)cc(OC)c1O [Etoposide]",
    "OUTPUT UNIT": "×10⁻⁶ cm/s",
    "Papp B→A at 2 h, 2 µM": 3.68
  },
  {
    "MOLECULE": "CN(C)CCC=C1c2ccccc2CCc2ccccc21",
    "OUTPUT UNIT": "×10⁻⁶ cm/s",
    "Papp B→A at 2 h, 2 µM": 12.7
  }
]

---

System: P-gp (human MDR1)
Assay: in vitro
Settings: pig, LLC-PK1, pH 7.4, Papp A-B

[
  {
    "COMPOUND": "Nc1c2c(nc3ccccc13)CCCC2 [Tacrine]",
    "Papp A→B at 2 h, 2 µM [×10⁻⁶ cm/s]": 23.6
  }
]

---

Test system: P-gp (human MDR1)
Assay: Bidirectional transport across LLC-PK1-MDR1 monolayer stably expressing human MDR1 (P-gp) (Transwell);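 further: 2 h incubation at 37 °C, receiver HBSS with 10 mM Hepes plus 1% BSA, LC-MS/MS of donor and receiver, recovery as receiver plus donor amount over initial donor amount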
Details: pig, LLC-PK1, pH 7.4
# if value of efflux ratio at 2 h, 2 µM reaches 1, tag TRUE; if it stays below, tag FALSE

[
  {
    "COMPOUND": "CC(C)NCC(O)COc1cccc2ccccc12 (centres unmarked) [Propranolol]",
    "CAT": "FALSE"
  },
  {
    "COMPOUND": "NC(=O)C[S+]([O-])C(c1ccccc1)c1ccccc1 (centres unmarked) [Modafinil]",
    "CAT": "TRUE"
  },
  {
    "COMPOUND": "Cc1ncc2n1-c1ccc(Cl)cc1C(c1ccccc1F)=NC2 [Midazolam]",
    "CAT": "FALSE"
  },
  {
    "COMPOUND": "COCCOC(=O)C1=C(C)NC(C)=C(C(=O)OC(C)C)C1c1cccc([N+](=O)[O-])c1 (centres unmarked) [Nimodipine]",
    "CAT": "TRUE"
  },
  {
    "COMPOUND": "COc1ccc2c(c1)[C@]13CCCC[C@@H]1[C@H](C2)N(C)CC3 [Dextromethorphan]",
    "CAT": "TRUE"
  }
]
